Each entry below carries its recorded IC50.
Tested on: H1299 p53 Y220C
Test: Cell Proliferation Assay (CellTiter-Glo, CTG), H1299 p53 Y220C (NClH1299-inducible p53 Y220C)
Type: cell-based
Details: Homo sapiens, NCI-H1299, 120 h, CellTiter-Glo, H1299 p53 Y220C, 5 days
Description: Inducible p53 Y220C and R273H constructs (Tet-One inducible expression system; Takara) were stably expressed in NClH1299 cells by lentiviral transduction. NUGC3, A549, BxPC3, T3M4, HuH7, HCC2935, MFE296, NClH1299, NClH1299-inducible p53 Y220C, and NClH1299-inducible p53 R273H cell lines were used for cell proliferation assay. […] The luminescent signal was measured by PheraStar microplate reader and IC50 was calculated.

# example entries with known answers
chemical_structure	measured_attribute	value_measured
COc1cc(S(C)(=O)=O)ccc1NCC#Cc1nc2c(NC3CC4(C3)CN(C)C4)cccn2c1CC(F)(F)F	IC50	> 3000 nM
CNC(=O)c1ccc(NCC#Cc2nc3c(N[C@@H]4CCN(C)C[C@@H]4F)cccn3c2C2CC2)c(OC)c1	IC50	> 3000 nM
COc1cc2c(cc1NCC#Cc1nc3c(N[C@@H]4CCN(C)C[C@@H]4F)cccn3c1SC(F)(F)F)C(=O)NC2	IC50	< 750 nM

Asked: Any idea what its IC50 is? The molecule is CNS(=O)(=O)c1ccc(NCC#Cc2nc3c(N[C@@H]4CCN(C)C[C@@H]4F)cccn3c2CC(F)(F)F)c(OC)c1
Given back: < 750 nM

Asked: Requested read-out: IC50. Entry: CNC(=O)c1ccc(NCC#Cc2nc3c(N[C@@H]4CCN(C)C[C@@H]4F)cccn3c2SC(F)(F)F)cn1
Given back: < 750 nM

Asked: Consider the molecule shown here: COc1ccc(C(N)=O)nc1NCC#Cc1nc2c(N[C@@H]3CCN(C)C[C@@H]3F)cccn2c1SC(F)(F)F What is its recorded IC50?
Given back: < 750 nM

Asked: Item under review: CC#Cc1nc2c(N[C@@H]3CCN(C)C[C@@H]3F)cccn2c1CC(F)(F)F . Reported IC50?
Given back: > 3000 nM
